Molecular target: T1, DcR3 FL-Fc (R&D Systems, Inc.) (human, UniProt O95407 30-300)
T1 construct: Bought product made in insect cells; also called DcR3-Fc (R&D Systems, Inc.); DcR3 FL-Fc (IgG1)
T1 sequence: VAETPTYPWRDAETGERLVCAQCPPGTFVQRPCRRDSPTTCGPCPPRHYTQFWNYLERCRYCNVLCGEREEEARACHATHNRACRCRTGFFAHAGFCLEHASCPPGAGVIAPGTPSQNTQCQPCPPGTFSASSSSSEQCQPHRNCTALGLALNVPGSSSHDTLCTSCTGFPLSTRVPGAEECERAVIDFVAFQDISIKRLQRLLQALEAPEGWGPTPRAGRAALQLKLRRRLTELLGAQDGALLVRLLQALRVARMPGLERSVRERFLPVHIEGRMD
Assay: SPR, binder captured
The following binders are shown together with reported kon values.

Take a look at these entries with their results.
# BINDER, kon
data = [
    ("soluble recombinant of human TL1A (His6, GS linker, Leu72-Leu251) (ligand, also called His6-TL1A; hTL1A) HHHHHHGGGSGGGSGGGSLKGQEFAPSHQQVYAPLRADGDKPRAHLTVVRQTPTQHFKNQFPALHWEHELGLAFTKNRMNYTNKFLLIPESGDYFIYSQVTFRGMTSECSEIRQAGRPNKPDSITVVITKVTDSYPEPTQLLMGTKSVCEVGSNWFQPIYLGAMFSLQEGDKLMVNVSDISLVDYTKEDKTFFGAFLL", "390000 M⁻¹ s⁻¹"),
    ("soluble recombinant of human FasL (His6, Pro134-Leu281) (ligand) PSPPPEKKELRKVAHLTGKSNSRSMPLEWEDTYGIVLLSGVKYKKGGLVINETGLYFVYSKVYFRGQSCNNLPLSHKVYMRNSKYPQDLVMMEGKMMSYCTTGQMWARSSYLGAVFNLTSADHLYVNVSELSLVNFEESQTFFGLYKL", "310000 M⁻¹ s⁻¹"),
    ("soluble recombinant of cynomolgus monkey LIGHT (His10, GS linker, Asp74-Val240) (ligand) HHHHHHHHHHGGGSGGGSGGGSIEGRDGHGGSWEQLIQERRSHQNNPAAHLTGANSSLTGSGGPLLWETQLGLAFLRGLDYHDGALVANKAGYYYIYSKVQLGGVGCPLGLASTITHGLYKRTPRYPEELELLVSQQSPCGRATSNSRVWWDSSFLGGVVHLEVGEEVVVRVLDERLVRLRDGTRSYFGAFMV", "310000 M⁻¹ s⁻¹"),
    ("soluble recombinant of cynomolgus monkey TL1A (His6, GS linker, Leu72-Leu251) (ligand, also called His6-cynoTL1A) HHHHHHGGGSGGGSGGGSLKGQEFAPSHQQVYAPLRADGDKPRAHLTVVRQTPTQHLKNQFPALHWEHELGLAFTKNRMNYTNKFLLIPESGDYFVYSQVTFRGMTSECSEIRQAGRPNKPDSITVVITKVTDSYPEPTQLLMGTKSVCEVGSNWFQPIYLGAMFSLQEGDKLMVNVSDISLVDYTKEDKTFFGAFLL", "380000 M⁻¹ s⁻¹"),
]

Attention now shifts to the item below.
State its kon: soluble recombinant of mouse FasL (His6, Pro132-Leu279) (ligand) HHHHHHPSTPSEKKEPRSVAHLTGNPHSRSIPLEWEDTYGTALISGVKYKKGGLVINETGLYFVYSKVYFRGQSCNNQPLNHKVYMRNSKYPEDLVLMEEKRLNYCTTGQIWAHSSYLGAVFNLTSADHLYVNISQLSLINFEESKTFFGLYKL
150000 M⁻¹ s⁻¹
